Measured values drawn from patent US20250034266A1 for this set.

- TARGET OF ASSAY: T1, human CCR8 (human, UniProt P51685 1-355)
- T1 construct: whole, on cells; also called hCCR8
- T1 sequence (P51685 whole entry): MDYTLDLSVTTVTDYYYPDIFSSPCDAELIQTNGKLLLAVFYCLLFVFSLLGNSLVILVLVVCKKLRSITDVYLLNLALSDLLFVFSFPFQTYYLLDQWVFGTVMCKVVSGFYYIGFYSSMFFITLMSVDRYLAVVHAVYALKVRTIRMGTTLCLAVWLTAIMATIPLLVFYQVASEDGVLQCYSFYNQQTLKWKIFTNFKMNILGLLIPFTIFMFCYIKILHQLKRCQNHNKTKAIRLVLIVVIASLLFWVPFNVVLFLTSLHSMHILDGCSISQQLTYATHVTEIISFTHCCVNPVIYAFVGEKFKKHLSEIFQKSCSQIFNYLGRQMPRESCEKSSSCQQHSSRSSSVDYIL
- ASSAY TEXT: FACS, competition with AF647-human CCL1 on CHO-K1-human CCR8 cells
binders and their reported Max Inhibition (%)
Give the value, in units of %, as a plain number.

BINDER	MEASUREMENT LABEL	OBSERVED RESULT
Hu149-6 (antibody, V domains shown, humanized IgG) VH: EVQLVESGGGLVQPGGSLKLSCAASGFTFNTYAMHWVRQASGKGLEWVGRIRSKSNFYATYYAASVKGRFTISRDDSKNTAYLQMNSLKTEDTAVYYCVRGRDYGSSYAMDYWGQGTLVTVSS VL: DIVMTQSPLSLPVTPGEPASISCRSSKSLLHSNANTYLYWYLQKPGQSPQLLIYRMSNLASGVPDRFSGSGSGTDFTLKISRVEAEDVGVYYCMQHLEYPLTFGGGTKVELK	Max Inhibition (%)	1
Hu149-2 (antibody, V domains shown, humanized IgG) VH: EVQLVESGGGLVQPGGSLKLSCAASGFTFNTYAMHWVRQASGKGLEWVGRIRSKSNFYATYYAASVKGRFTISRDDSKNTAYLQMNSLKTEDTAVYYCVRGRDYGSSYAMDYWGQGTLVTVSS VL: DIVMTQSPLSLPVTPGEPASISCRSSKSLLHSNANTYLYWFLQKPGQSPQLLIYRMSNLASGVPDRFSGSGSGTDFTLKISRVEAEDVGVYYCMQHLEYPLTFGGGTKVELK	Max Inhibition (%)	39.5

State its Max Inhibition (%): CM149 (antibody, V domains shown, CM149 is not defined in words; also called CM149 HuIgG1; parental antibody CM149) VH: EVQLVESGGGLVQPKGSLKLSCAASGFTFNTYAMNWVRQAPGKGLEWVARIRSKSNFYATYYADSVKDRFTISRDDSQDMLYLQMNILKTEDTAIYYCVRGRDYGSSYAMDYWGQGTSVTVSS VL: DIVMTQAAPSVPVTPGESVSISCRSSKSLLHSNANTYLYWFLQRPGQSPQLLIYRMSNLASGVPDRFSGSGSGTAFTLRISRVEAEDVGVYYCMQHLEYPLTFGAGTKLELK
97.8
